Biological target: Nuclear receptor ROR-gamma (Homo sapiens)
Experiment: qHTS assay to identify small molecule antagonists of the retinoid-related orphan receptor gamma (ROR-gamma) signaling pathway (AID 1159521; note: nearly all actives have a fitted effect of over 50% in size)
Details: Tet-on RORgamma CHO cells, RORE-luciferase, 16 h; series mostly up to 92.4 µM
Experimental: U.S. Tox21 Program National Center for Advancing Translational Sciences [NCATS] NIH Chemical Genomics Center [NCGC] U.S. Environmental Protection Agency [EPA] National Institutes of Environmental Health Sciences [NIEHS] National Toxicology Program [NTP] U.S. Food and Drug Administration [FDA] […] Reporter gene activity was induced using Doxycycline Hyclate and measured after 16 hr incubation. […]
Records with an inconclusive call do not appear. Active and inactive are the calls of the source. Calls come from the whole dose curve; as a rule, active = well fitted inhibition curve with a large enough effect in the repeat runs; inconclusive = weak or mixed curves, or effect the other way; inactive = no such curve, though single readings can be large or run the other way.
Respond only with the outcome that fits, drawn from Y = active, N = inactive

Please share the test call associated with "CCOC(=O)[C@H](CCc1ccccc1)N[C@@H](C)C(=O)N(CC(=O)O)C1Cc2ccccc2C1" .
N

What is the recorded call for this compound in the test? "C(=C\c1ccccc1)/c1ccccc1"
N

Entry "O=C(O)CCC(=O)C(=O)O" : call = ?
N

Fill in: this test's call for "CN1C(C(=O)Nc2ccccn2)=C(O)c2sccc2S1(=O)=O" is ___
N

// outcome(item) with item = "COc1cc(Nc2c(C#N)cnc3cc(OCCCN4CCN(C)CC4)c(OC)cc23)c(Cl)cc1Cl"
N

Please indicate how the test categorized "C[C@H]1C[C@H](O)c2ccsc2S1(=O)=O" .
N

Please indicate how the test categorized "Cc1cc(O)c(C)c(C)c1O" .
N

Just curious, what result did CN1CCCN=C1COC(=O)C(O)(c1ccccc1)C1CCCCC1 (configuration not stated) get here?
N

Outcome? "C1C[C@@H]2[C@H]3CC[C@H](C3)[C@@H]2C1"
N

For this compound, state the assay outcome: "CC1=C(Br)C(=O)C(Br)=C/C1=C(/c1ccccc1S(=O)(=O)O)c1cc(Br)c(O)c(Br)c1C"
Y

Could you check what this test reported for "CN(C)CCC=C1c2ccccc2C=Cc2ccccc21" ?
N

# lookup: test call for "CN1CC(=O)N2[C@H](c3ccc4c(c3)OCO4)c3[nH]c4ccccc4c3C[C@@H]2C1=O"
N

====

test: qHTS assay for identifying genotoxic compounds that show differential cytotoxicity against isogenic chicken DT40 cell lines with known DNA damage response pathways - wild type cell line (AID 743012); conditions: DT40 wild type chicken cells viability, CellTiter-Glo, 40 h; series mostly up to 68.4 µM; note: nearly all actives have a fitted effect of over 60% in size; note: potency is the fitted concentration of half-maximal effect
Inconclusive results are not listed. Calls of active or inactive are those of the source. Calls come from the whole dose curve; as a rule, active = well fitted cell-killing curve with a large enough effect in the repeat runs; inconclusive = weak or mixed curves, or effect the other way; inactive = no such curve, though single readings can be large or run the other way.
REPORTED METRIC: Potency

CC1CC(OC(=O)C(O)c2ccccc2)CC(C)(C)N1C (stereo not drawn) ... inactive
CCCCCCCCN ... inactive
C=C(C)C(=O)OCCCCCCCCCCCCC ... inactive
CN1C(=O)N(c2ccccc2Br)Cc2cnc(Nc3ccc4c(c3)OCC(CO)O4)nc21 (stereo not drawn) ... 7.7 µM (active)
N#CCCN(CCO)CCO ... inactive
c1cc(N(CC2CO2)CC2CO2)ccc1Cc1ccc(N(CC2CO2)CC2CO2)cc1 (stereo not drawn) ... 3.44 µM (active)
CC(=O)OCC(=O)NCCCOc1cccc(CN2CCCCC2)c1 ... inactive

Now examine the next entry.
Memo: CCC(OCCCOC)OC(C)=O (stereo not drawn) , reported Potency: inactive

====

biological target: Estrogen receptor beta (Homo sapiens) (UniProt Q92731); experiment: qHTS assay to identify small molecule antagonists of the estrogen receptor beta (ER-beta) signaling pathway (AID 1259378); conditions: ER-beta-UAS-bla HEK293T, beta-lactamase FRET ratio, 16 h; series mostly up to 92.4 µM
Sequence (Q92731 whole entry, looked up): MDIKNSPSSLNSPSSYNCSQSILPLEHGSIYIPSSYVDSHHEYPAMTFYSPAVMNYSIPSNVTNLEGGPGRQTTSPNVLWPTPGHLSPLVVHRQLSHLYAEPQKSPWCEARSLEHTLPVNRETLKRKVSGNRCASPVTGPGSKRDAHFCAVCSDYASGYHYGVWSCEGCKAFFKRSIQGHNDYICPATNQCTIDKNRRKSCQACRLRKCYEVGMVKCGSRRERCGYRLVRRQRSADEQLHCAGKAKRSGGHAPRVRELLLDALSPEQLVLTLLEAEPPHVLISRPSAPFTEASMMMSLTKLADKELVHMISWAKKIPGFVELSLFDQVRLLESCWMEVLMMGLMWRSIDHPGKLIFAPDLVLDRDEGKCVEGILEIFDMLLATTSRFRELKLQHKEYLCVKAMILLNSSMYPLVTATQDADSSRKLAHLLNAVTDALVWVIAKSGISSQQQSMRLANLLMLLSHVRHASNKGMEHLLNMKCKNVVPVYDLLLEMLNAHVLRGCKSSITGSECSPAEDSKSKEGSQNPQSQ
Inconclusive results are not listed. Calls of active or inactive are those of the source. Calls follow the shape of the dose curve; as a rule, active = well fitted inhibition curve with a large enough effect in the signal ratio in the repeat runs (not every such curve was filed as active); inconclusive = weak or mixed curves, or effect the other way; inactive = no such curve, though single readings can be large or run the other way; the % refers to the signal ratio.
Result category, one only: active, inactive

Outcome? "C=C1C[C@@]23CC[C@H]4[C@@](C)(CCC[C@@]4(C)C(=O)O[C@@H]4O[C@H](CO)[C@@H](O)[C@H](O)[C@H]4O)[C@@H]2CC[C@]1(O[C@@H]1O[C@H](CO)[C@@H](O)[C@H](O[C@@H]2O[C@H](CO)[C@@H](O)[C@H](O)[C@H]2O)[C@H]1O[C@@H]1O[C@H](CO)[C@@H](O)[C@H](O)[C@H]1O)C3"
inactive

Record lookup: outcome of this test for CCOC(=O)OC(C)OC(=O)[C@@H]1N2C(=O)[C@@H](NC(=O)[C@H](N)c3ccccc3)[C@H]2SC1(C)C (some centres undefined) ?
inactive

Please share the test call associated with "CCN(CC)CCNC(=O)COc1ccc(OC)cc1" .
inactive

Query: recorded result category for "CC1(C)O[C@@H]2C[C@H]3[C@@H]4C[C@H](F)C5=CC(=O)C=C[C@]5(C)[C@H]4[C@@H](O)C[C@]3(C)[C@]2(C(=O)CO)O1" in this test
inactive

# lookup: test call for CCC1CO1 (centres undefined)
inactive

How was "CC/C=C1/OC(=O)c2ccccc21" classified in this test?
inactive

What call does the record list for "CCCCCCCCCI" ?
inactive

I'd appreciate the recorded outcome for "C[C@@H]1CN(CCCn2c3ccccc3c3ccccc32)C[C@H](C)N1" from this test.
active

Recorded test outcome, item C=C(C)CCCC(C)CCO (centres undefined)
inactive

Lab log entry: "CCC=CC#N" — outcome as called in the assay?
inactive

Recorded call for "NNC(=O)CP(=O)(c1ccccc1)c1ccccc1" ?
inactive

Given c1cc(N(CC2CO2)CC2CO2)ccc1Cc1ccc(N(CC2CO2)CC2CO2)cc1 (centres undefined) , state the outcome it received in this test.
active

What outcome does the record of this test show for CN1CCCN=C1COC(=O)C(O)(c1ccccc1)C1CCCCC1 (centres undefined) ?
inactive

Hi, sorry to bother you, what did the test record for "O=C1c2ccccc2C(=O)C1(O)O" ?
inactive

Returns: the outcome recorded for Nc1cccc2c1CN(C1CCC(=O)NC1=O)C2=O (centres undefined) in this assay.
inactive

Hello, I am checking results. What call was entered for CC1CC(C)C(=O)C1=O (centres undefined) ?
inactive

For "CN1C(=O)OC(C)(C)C1=O" , which call appears in the assay record?
inactive

Please let me know the test result on file for "CC(C)=CCC/C(C)=C/CC/C(C)=C/CCC(=O)OC/C=C(\C)CCC=C(C)C" .
inactive

Kindly provide the recorded test outcome for the following compound: "c1ccc2sc(SN(C3CCCCC3)C3CCCCC3)nc2c1"
inactive

What call does the record list for "Cc1cc(C)c(N)cc1C" ?
inactive

# outcome recorded in this test, key = "Clc1ccc(Nc2nnc(Cc3ccncc3)c3ccccc23)cc1"
active

Query: recorded result category for "O=C1c2ccccc2C(=O)C1c1nc2ccccc2c(Br)c1O" in this test
inactive

Called result for "C[C@@H](CN(C)C)CN1c2ccccc2Sc2ccccc21"
active

Recorded call for "CCOC(=O)c1ccc(C#Cc2ccc3c(c2)C(C)(C)CCS3)nc1" ?
inactive

Returns: the outcome recorded for "C=Cc1ccc(S(=O)(=O)O)cc1" in this assay.
inactive

So what was the verdict on CCCCN(CCCC)C(C(N)=O)c1ccc(OC)cc1 (centres undefined) in this test?
inactive

Kindly provide the recorded test outcome for the following compound: "OC1(c2ccccc2)CCNCC1"
inactive

# lookup: test call for "c1ccc2c(c1)CCc1ccccc1N2"
inactive

Please share the test call associated with "O=C(Cn1ccnc1[N+](=O)[O-])NCCO" .
inactive
